# Test system: K-562 leukemia
# TEST SUMMARY: NCI-60 one-dose screen, 48 h
# STATED CONDITIONS: 10 µM unless noted
This is part of a sample that, as a whole, favours compounds with a hit. Of some 83,000 tested, about 20% had one in any assay. Active and inactive are the calls of the source. Rule for the calls: active = growth percent below 10; inactive = the rest.
Output constraint: value belongs to active, inactive

- O=C1C2C(c3cccs3)C=C(c3ccc(Cl)cc3)N2C(=S)N1c1ccccc1 (configuration not stated): inactive
- O=C(OCC(O)(CO)C(=O)NC12CC3CC(CC(C3)C1)C2)c1ccc(Cl)cc1 (configuration not stated): inactive
- CN1C(=O)N(C)C2C1NN=c1s/c(=C\c3ccc(F)cc3)c(=O)n12 (configuration not stated): inactive
- Cc1ccc2c(n1)C[C@H](C(C)(C)O)CC[C@H]2C: inactive

**Q:** Status in this test for CN(CCNc1ccc(C(=N)N)cc1)c1ccc(C(=N)N)cc1 ?
**A:** inactive

**Q:** Status in this test for CN1/C(=C/C=C/c2n(Cc3ccc4ccccc4c3)c(Cl)c(Cl)[n+]2Cc2ccc3ccccc3c2)Oc2ccccc21 ?
**A:** inactive

**Q:** Status in this test for COC(=O)[C@H](C)NC(=O)c1ccc(NC(=O)c2[nH]c(C)c(Cl)c2Cl)c(OCCN)c1 ?
**A:** inactive

**Q:** Status in this test for C=C1C(=O)O[C@H]2[C@H]1CC/C(CNC(=O)/C=C/c1cc(OC)c(OC)c(OC)c1)=C\CC[C@@]1(C)O[C@@H]21 ?
**A:** active

**Q:** Status in this test for O=c1ccc2c(ccc3ncccc32)o1 ?
**A:** inactive

**Q:** Status in this test for CCN1C(=O)N(CC)C2C1NN=c1s/c(=C\c3ccccc3)c(=O)n12 (configuration not stated) ?
**A:** active

**Q:** Status in this test for CC1(C)CC(=O)C2=C(C1)OC(C(=O)c1ccccc1)C2c1cccc(Oc2ccccc2)c1 (configuration not stated) ?
**A:** inactive

**Q:** Status in this test for CC(C)(C)n1cc(-c2ccnc(NCCNS(=O)(=O)c3ccc(Br)cc3)c2)c(-c2cccc(O)c2)n1 ?
**A:** active

**Q:** Status in this test for Nc1n[nH]c2cccc(C#Cc3cccc(C(=O)Nc4ccc(Cl)c(C(F)(F)F)c4)c3)c12 ?
**A:** active

**Q:** Status in this test for COc1ccc(/C=C\c2cc(OC)c(OC)c(OC)c2)cc1OCC(=O)Nc1nc2ccccc2s1 ?
**A:** inactive

----------
# Tested on: TK-10 renal
# TEST SUMMARY: NCI-60 one-dose screen, 48 h
# STATED CONDITIONS: 10 µM unless noted
About 83,000 compounds went through this panel and 20% of them were active in at least one assay; those are over-represented in the sample as a whole. Activity calls are given as the source filed them. The calls were made as follows: active = growth percent below 10; inactive = the rest.
Output constraint: value belongs to true (1) (active), false (0) (inactive)

* c1ccc2c(-c3cnn4cc(-c5ccc(N6CCNCC6)cc5)cnc34)ccnc2c1 | true (1)
* COc1ccc(Nc2nccc(Nc3ccc4[nH]ncc4c3)n2)cc1 | false (0)
* COc1cccc(-c2nn(-c3ccccc3)cc2-c2ccnc(-c3cccnc3)c2)c1 | false (0)
* Oc1c(Cl)cc(Cl)c2ccc(CN3CCNCC3)nc12 | false (0)
* Cc1c2ccncc2c(C)c2c1c1ccccc1n2CCCCCC(=O)O | false (0)
* CCOC(=O)c1c(N)sc2cc(O)ccc12 | false (0)
* C#CCOc1cccc(Nc2ncnc3c(NC(=O)CCl)cccc23)c1 | false (0)
* CCN1C(=O)N(CC)C2C1NC(=S)N2/N=C/C=C/c1cccs1 (stereo not drawn) | false (0)

**Q:** Status in this test for O=C(O)/C=C\C(=O)Nc1ccc2c(c1)Cc1cc(F)ccc1-2 ?
**A:** false (0)

**Q:** Status in this test for C[C@@H]1N=C(c2ccc(Cl)cc2Cl)Nc2nc3ccccn3c2C1=O ?
**A:** false (0)

**Q:** Status in this test for O=C(CSc1nc(-c2ccccc2)cn1-c1ccc(Cl)cc1)c1ccc([N+](=O)[O-])cc1 ?
**A:** false (0)

**Q:** Status in this test for [2H]C([2H])([2H])Oc1ccc(/C=C/C(=O)/C=C(O)/C=C/c2ccc(OC([2H])([2H])[2H])c(OC([2H])([2H])[2H])c2)cc1OC([2H])([2H])[2H] ?
**A:** false (0)

**Q:** Status in this test for COc1ccc(/C=C\c2cc(OC)c(OC)c(OC)c2)cc1OCC(=O)Nc1nc2ccccc2s1 ?
**A:** true (1)
